system: FLT-3 kinase (Homo sapiens)
Construct: human FLT-3 (Arg571-Ser993); GST (N); purchased Cell Signaling Technology HTScan FLT-3 Kinase Assay Kit; host or cells: baculovirus expression system
Sequence (P36888 571-993): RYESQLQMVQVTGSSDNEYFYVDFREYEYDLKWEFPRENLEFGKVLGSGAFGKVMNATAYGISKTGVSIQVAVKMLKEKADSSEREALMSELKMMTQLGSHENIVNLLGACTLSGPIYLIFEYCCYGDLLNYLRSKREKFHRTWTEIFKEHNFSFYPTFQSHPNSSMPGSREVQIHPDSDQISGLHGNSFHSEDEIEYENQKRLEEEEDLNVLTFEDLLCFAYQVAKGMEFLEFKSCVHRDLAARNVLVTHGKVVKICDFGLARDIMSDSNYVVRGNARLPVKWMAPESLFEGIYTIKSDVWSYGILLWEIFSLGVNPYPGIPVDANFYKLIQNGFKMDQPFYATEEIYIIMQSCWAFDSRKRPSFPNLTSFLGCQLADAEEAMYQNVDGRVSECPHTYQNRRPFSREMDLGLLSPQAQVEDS
test: FLT-3 kinase DELFIA assay (HTScan FLT-3 Kinase Assay Kit)
Format: biochemical
reported.conditions: 0.1 uM compound, 20 uM ATP
Procedure: Azaazulene Compounds of this invention were treated for their efficacy in inhibiting activities of FLT-3, c-KIT and KDR kinases by biochemical DELFIA (Dissociation Enhanced Lanthanide FIA) assays according to the procedure described below. The assays were conducted by, Division of Cell Engineering, Biomedical Engineering Research Laboratories, Industrial Technology Research Institute, Bldg. 53, 195, sec. 4, Chung Hsing Rd. Chutung, Hsinchu, Taiwan 310, R.O.C. […]
reported.property: inhibition at 0.1 µM
Give the figure together with its unit, number first.

Known inhibition at 0.1 µM results, listed for orientation:
[[record]]
smiles_structure = "N#Cc1ccc2[nH]c(-c3c4cccccc-4[nH]c3=O)nc2c1"
reported_property = "inhibition at 0.1 µM"
value = "14.7%"

[[record]]
smiles_structure = "CS(=O)(=O)N1CCN(c2ccc3[nH]c(-c4c5cccccc-5[nH]c4=O)nc3c2)CC1"
reported_property = "inhibition at 0.1 µM"
value = "29.5%"

[[record]]
smiles_structure = "O=c1[nH]c2cccccc-2c1-c1nc2cc(N3CCN(c4ncccc4[N+](=O)[O-])CC3)ccc2[nH]1"
reported_property = "inhibition at 0.1 µM"
value = "16.3%"


Short answer on FLT-3 kinase (Homo sapiens) for CN1CCN(C2CCN(c3ccc4[nH]c(-c5c6cccccc-6[nH]c5=O)nc4c3)CC2)CC1 , inhibition at 0.1 µM: 38.7%

====

system: FLT-3 kinase (Homo sapiens)
Construct: human FLT-3 (Arg571-Ser993); GST (N); purchased Cell Signaling Technology HTScan FLT-3 Kinase Assay Kit; host or cells: baculovirus expression system
test: FLT-3 kinase DELFIA assay (HTScan FLT-3 Kinase Assay Kit)
Type: biochemical
reported.conditions: 0.1 uM compound, 20 uM ATP
Measured inhibition at 0.1 µM values are reported for all entries that follow.
The response must be a number in % with no trailing unit.

Known inhibition at 0.1 µM results, listed for orientation:
[[record]]
compound = "O=C(c1ccc2[nH]c(-c3c4cccccc-4[nH]c3=O)nc2c1)N1CCCN(c2ccncc2)CC1 [Compound B92]"
reported_property = "inhibition at 0.1 µM"
value = 17.9

[[record]]
compound = "O=c1[nH]c2cccccc-2c1-c1nc2cc(N3CCN(Cc4ccc(Br)o4)CC3)ccc2[nH]1 [Compound B46]"
reported_property = "inhibition at 0.1 µM"
value = 27.4

[[record]]
compound = "O=C(O)CCC(=O)N1CCCN(c2ccc3[nH]c(-c4c5cccccc-5[nH]c4=O)nc3c2)CC1 [Compound B89]"
reported_property = "inhibition at 0.1 µM"
value = 20

[[record]]
compound = "CC1CN(c2ccc3[nH]c(-c4c5cccccc-5[nH]c4=O)nc3c2)CC(C)N1 (centres unmarked) [Compound B24]"
reported_property = "inhibition at 0.1 µM"
value = 19.1

[[record]]
compound = "CN1CCCN(c2ccc3[nH]c(-c4c5cccccc-5[nH]c4=O)nc3c2)CC1 [Compound B77]"
reported_property = "inhibition at 0.1 µM"
value = 47.1

[[record]]
compound = "CCN(CC)CCCCn1c2cccccc-2c(-c2nc3cc(N4CCN(C)CC4)ccc3[nH]2)c1=O [Compound B32]"
reported_property = "inhibition at 0.1 µM"
value = 8


Form field inhibition at 0.1 µM, entry O=c1[nH]c2cccccc-2c1-c1nc2cc(N3CCCNCC3)ccc2[nH]1 [Compound B76] : 50

Form field inhibition at 0.1 µM, entry O=c1[nH]c2cccccc-2c1-c1nc2cc(N3CCN(c4c(F)cncc4F)CC3)ccc2[nH]1 [Compound B61] : 17.7
